Species on record: Rattus norvegicus
Assay: DrugMatrix - Regimen: Daily Repeat
Assay type: toxicity, organism-based, Sprague-Dawley
Parameters: regimen Daily Repeat, gender Male, age 6-8 weeks
Conditions: in vivo, po, 0 mg/kg, 120 h, tissue Blood, route oral GAVAGE, dose level Control, time 5 day, […]
QUANTITY_NAME: ABSOLUTE LYMPHOCYTE
Just the number plus its unit, please.

In: Recorded ABSOLUTE LYMPHOCYTE of CC(C)(C)NC(=O)[C@H]1CC[C@H]2[C@@H]3CC[C@H]4NC(=O)C=C[C@]4(C)[C@H]3CC[C@]12C [FINASTERIDE] , please.
Out: 8734 CELLS/uL

In: Further, for COc1cc(N)c(Cl)cc1C(=O)NC1CCN(CCCOc2ccc(F)cc2)CC1OC (centres undefined) [CISAPRIDE] ?
Out: 11518.33 CELLS/uL

Okay, here is my list. What is ABSOLUTE LYMPHOCYTE for each of these?
1. Clc1ccc(COC(Cn2ccnc2)c2ccc(Cl)cc2Cl)cc1 (centres undefined) [ECONAZOLE]
2. CO[C@H]1/C=C/O[C@@]2(C)Oc3c(C)c(O)c4c(O)c(c(/C=N/N5CCN(C6CCCC6)CC5)c(O)c4c3C2=O)NC(=O)/C(C)=C\C=C\[C@H](C)[C@H](O)[C@@H](C)[C@@H](O)[C@@H](C)[C@H](OC(C)=O)[C@@H]1C [RIFAPENTINE]

Out:
1: 4426.33 CELLS/uL; 2: 14743.5 CELLS/uL

====

Species on record: Rattus norvegicus
Experiment: DrugMatrix - Regimen: Daily Repeat
Format: toxicity, organism-based, Sprague-Dawley
Design: regimen Daily Repeat, gender Male, age 6-8 weeks
Conditions: in vivo, po, 1500 mg/kg, 120 h, tissue Blood, route oral GAVAGE, dose level High, time 5 day, vehicle .5 % CMC
QUANTITY_NAME: EOSINOPHIL (%)
Answers are plain numbers, in %.

Check out these entries, answers already filled in.
In: Recorded EOSINOPHIL of CC(C)=CCC/C(C)=C/CO , please.
Out: 0

In: Further, for CN(C)[C@@H]1C(O)=C(C(N)=O)C(=O)[C@@]2(O)C(O)=C3C(=O)c4c(O)ccc(Cl)c4[C@@](C)(O)[C@H]3C[C@@H]12 ?
Out: 0.67

In: Further, for CC(C)Oc1ccc2c(=O)c(-c3ccccc3)coc2c1 ?
Out: 0

Okay, here is my list. What is EOSINOPHIL for each of these?
1. COC(=O)Nc1nc2ccc([S+]([O-])c3ccccc3)cc2[nH]1 (stereo not given)
2. O=c1cnn([C@@H]2O[C@H](CO)[C@@H](O)[C@H]2O)c(=O)[nH]1

Out:
1. 0
2. 0.33

====

Species: Rattus norvegicus
Experiment: DrugMatrix - Regimen: Daily Repeat
Type: toxicity, organism-based, Sprague-Dawley
Parameters: regimen Daily Repeat, gender Male, age 6-8 weeks
Conditions: in vivo, ip, 0 mg/kg, 120 h, tissue Blood, route intraperitoneal, dose level Control, time 5 day, vehicle 100 % SALINE
QUANTITY_NAME: ABSOLUTE EOSINOPHIL (cells/µL)
Give bare numbers, in cells/µL.

In: Recorded ABSOLUTE EOSINOPHIL of GENTAMICIN , please.
Out: 110

====

Organism: Rattus norvegicus
Experiment: DrugMatrix - Regimen: Daily Repeat
Format: toxicity, organism-based, Sprague-Dawley
Design: regimen Daily Repeat, gender Male, age 6-8 weeks
Details: in vivo, po, 0 mg/kg, 120 h, tissue Blood, route oral GAVAGE, dose level Control, time 5 day, vehicle 100 % WATER
QUANTITY_NAME: MEAN CORPUSCULAR HEMOGLOBIN CONCENTRATION (G/DL)
One number for each entry, in G/DL.

In: Recorded MEAN CORPUSCULAR HEMOGLOBIN CONCENTRATION of CC(C)NCC(O)c1ccc(NS(C)(=O)=O)cc1 (stereo not given) , please.
Out: 39.13

In: Further, for Cn1c(=O)c2[nH]cnc2n(C)c1=O.O ?
Out: 39

In: Further, for CN(C)CCOC(c1ccccc1)c1ccccc1 [DIPHENHYDRAMINE] ?
Out: 38.43

In: Further, for CN1[C@@H]2CC[C@H]1C[C@@H](OC(=O)C(CO)c1ccccc1)C2 (stereo not given in full) ?
Out: 38.45

Below: the item to evaluate.
In: Recorded MEAN CORPUSCULAR HEMOGLOBIN CONCENTRATION of CN(C)CC[C@@H](c1ccc(Cl)cc1)c1ccccn1 , please.
Out: 39.3

====

Species: Rattus norvegicus
Experiment: DrugMatrix - Regimen: Daily Repeat
Format: toxicity, organism-based, Sprague-Dawley
Design: regimen Daily Repeat, gender Male, age 6-8 weeks
Settings: in vivo, po, 2000 mg/kg, 120 h, tissue Plasma, route oral GAVAGE, dose level High, time 5 day, vehicle .5 % CMC
QUANTITY_NAME: TOTAL PROTEIN (G/DL)
Give bare numbers, in G/DL.

In: Recorded TOTAL PROTEIN of O=C1Nc2ccc(Cl)cc2C(c2ccccc2Cl)=NC1O (stereo unspecified) [LORAZEPAM] , please.
Out: 6.2

Okay, here is my list. What is TOTAL PROTEIN for each of these?
1. COc1cc2nc(N3CCN(C(=O)c4ccco4)CC3)nc(N)c2cc1OC [PRAZOSIN]
2. CC1(C)S[C@@H]2[C@H](NC(=O)[C@H](N)c3ccccc3)C(=O)N2[C@H]1C(=O)O [AMPICILLIN]
3. CN/C(=N/CCSCc1nc[nH]c1C)NC#N [CIMETIDINE]
4. CN(C/C=C/C#CC(C)(C)C)Cc1cccc2ccccc12 [TERBINAFINE]
5. NC1CCN(c2nc3c(cc2F)c(=O)c(C(=O)O)cn3-c2ccc(F)cc2F)C1 (stereo unspecified) [TOSUFLOXACIN]

Out:
1. 5.3
2. 6.03
3. 5.73
4. 5.73
5. 5.8

====

Organism: Rattus norvegicus
Test: DrugMatrix - Regimen: Daily Repeat
Format: toxicity, organism-based, Sprague-Dawley
Design: regimen Daily Repeat, gender Male, age 6-8 weeks
Conditions: in vivo, po, 0 mg/kg, 72 h, tissue Blood, route oral GAVAGE, dose level Control, time 3 day, […]
QUANTITY_NAME: EOSINOPHIL

Check out these entries, answers already filled in.
In: Recorded EOSINOPHIL of Clc1ccc(COC(Cn2ccnc2)c2ccc(Cl)cc2Cl)cc1 (centres undefined) [ECONAZOLE] , please.
Out: 0%

In: Further, for COc1cc(N)c(Cl)cc1C(=O)NC1CCN(CCCOc2ccc(F)cc2)CC1OC (centres undefined) [CISAPRIDE] ?
Out: 0.17%

In: Further, for CC(C)(C)NC(=O)[C@H]1CC[C@H]2[C@@H]3CC[C@H]4NC(=O)C=C[C@]4(C)[C@H]3CC[C@]12C [FINASTERIDE] ?
Out: 0.33%

Below: the item to evaluate.
In: Recorded EOSINOPHIL of CO[C@H]1/C=C/O[C@@]2(C)Oc3c(C)c(O)c4c(O)c(c(/C=N/N5CCN(C6CCCC6)CC5)c(O)c4c3C2=O)NC(=O)/C(C)=C\C=C\[C@H](C)[C@H](O)[C@@H](C)[C@@H](O)[C@@H](C)[C@H](OC(C)=O)[C@@H]1C [RIFAPENTINE] , please.
Out: 1.33%

====

Species: Rattus norvegicus
Test: DrugMatrix - Regimen: Daily Repeat
Format: toxicity, organism-based, Sprague-Dawley
Set-up: regimen Daily Repeat, gender Male, age 6-8 weeks
Details: in vivo, po, 1500 mg/kg, 72 h, tissue Plasma, route oral GAVAGE, dose level High, time 3 day, vehicle .5 % CMC
Would you mind telling me the reported URIC ACID of each entry?
One number for each entry, in mg/dL.

Check out these entries, answers already filled in.
In: Recorded URIC ACID of COC(=O)Nc1nc2ccc([S+]([O-])c3ccccc3)cc2[nH]1 (stereo not given) , please.
Out: 1.83

In: Further, for CC(C)=CCC/C(C)=C/CO ?
Out: 2.07

In: Further, for CC(C)Oc1ccc2c(=O)c(-c3ccccc3)coc2c1 ?
Out: 1.53

In: Further, for O=c1cnn([C@@H]2O[C@H](CO)[C@@H](O)[C@H]2O)c(=O)[nH]1 ?
Out: 1.67

Below: the item to evaluate.
In: Recorded URIC ACID of CN(C)[C@@H]1C(O)=C(C(N)=O)C(=O)[C@@]2(O)C(O)=C3C(=O)c4c(O)ccc(Cl)c4[C@@](C)(O)[C@H]3C[C@@H]12 , please.
Out: 1.87

====

Would you mind telling me the reported TOTAL PROTEIN of each entry?
Species on record: Rattus norvegicus
Experiment: DrugMatrix - Regimen: Daily Repeat
Assay type: toxicity, organism-based, Sprague-Dawley
Design: regimen Daily Repeat, gender Male, age 6-8 weeks
Details: in vivo, po, 50 mg/kg, 120 h, tissue Plasma, route oral GAVAGE, dose level Low, time 5 day, vehicle .5 % CMC
Just the number plus its unit, please.

Check out these entries, answers already filled in.
In: Recorded TOTAL PROTEIN of Cc1cccc(C)c1OCC(C)N (centres undefined) [MEXILETINE] , please.
Out: 6.4 G/DL

In: Further, for NC1CCN(c2nc3c(cc2F)c(=O)c(C(=O)O)cn3-c2ccc(F)cc2F)C1 (centres undefined) [TOSUFLOXACIN] ?
Out: 5.67 G/DL

In: Further, for CCN1CCC[C@H]1CNC(=O)c1cc(S(N)(=O)=O)ccc1OC [LEVOSULPIRIDE] ?
Out: 5.97 G/DL

Below: the item to evaluate.
In: Recorded TOTAL PROTEIN of CN(C)[C@@H]1C(O)=C(C(N)=O)C(=O)[C@@]2(O)C(O)=C3C(=O)c4c(O)ccc(Cl)c4[C@@](C)(O)[C@H]3C[C@@H]12 [CHLORTETRACYCLINE] , please.
Out: 5.73 G/DL

From: ChEMBL document CHEMBL3885881
